- Tested on: Methionine sulfoxide reductase A (Bos taurus)
- method-description: bovine MsrA inhibitors, retest, confirmation, biochemical, absorbance, HTS (AID 651822);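 further: coupled to thioredoxin reductase with NADPH and selenocystamine and DMSO as substrate; 0% = vehicle only and 100% = full effect of reference inhibitor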
- experimental-setup: purified bovine MsrA, absorbance read-out; at 15.5 µM
The whole screen tested about 2,300 compounds, of which about 970 (42%) were called active. No stated cut-off is given here; in the data, active means inhibition above about 4.5%; inactive means the rest. The set was probably picked from earlier hits. The list is a sample of the results.
Outcomes: active, inactive

| compound | cat |
| --- | --- |
| COc1ccc(S(=O)(=O)c2c[nH]c(=S)[nH]c2=O)cc1Cl | inactive |
| Cc1occc1C(=O)N/N=C/c1ccc(-c2cccc([N+](=O)[O-])c2)o1 | inactive |
| COc1ccc(-c2ccc(Nc3ccc(S(=O)(=O)N4CCCC4)cc3)nn2)cc1OC | active |
| O=C(O)c1ccc(N/N=C/c2ccc3ncccc3c2)cc1 | active |
| COc1cccc(C2=CC(=O)C[C@H](c3ccc(F)cc3)C2)c1OC | inactive |
| CC(C)Oc1c(Br)cc(Br)cc1/C=N/NC(N)=S | active |
| O=C(N/N=C/c1ccco1)c1ccc(C(=O)N/N=C/c2ccco2)o1 | active |
| O=C(Nc1ccc(C(=O)O)cc1)/C(=C/c1ccc([N+](=O)[O-])cc1)NC(=O)c1ccccc1 | inactive |
| O=C(CNC(=O)C1COc2ccccc2O1)N/N=C/c1cc(Br)c(O)c(Br)c1 (centres undefined) | active |

###

# Lookup of reported inhibition keyed by entry
- Tested on: Methionine sulfoxide reductase A (Bos taurus)
- method-description: bovine MsrA inhibitors, retest, confirmation, biochemical, absorbance, HTS (AID 651822);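 further: coupled to thioredoxin reductase with NADPH and selenocystamine and DMSO as substrate; 0% = vehicle only and 100% = full effect of reference inhibitor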
- experimental-setup: purified bovine MsrA, absorbance read-out; at 15.5 µM; hits give high values
Out of some 2,300 compounds screened, about 970 (42%) were called active. So high a share suggests a set chosen from earlier hits. The list is a sample of the results.

| molecule | unit-name | inhibition |
| --- | --- | --- |
| COc1ccc(CC(=O)c2ccc(O)cc2O)cc1OC | % | 4.03 |
| COc1ccc(C2=NS(=O)(=O)N(C)C(C(=O)N3CCCCC3)=C2)cc1 | % | 3.33 |
| Cc1n[nH]c(=O)nc1N/N=C/c1cccs1 | % | 3.61 |
| Cc1cccc(-n2c(O)c(C=Nc3ccccc3N)c(=O)[nH]c2=O)c1 | % | 3.07 |
| COc1ccc(/C=C/C(=O)NC(=S)N2CCCC(C(N)=O)C2)cc1 (stereo unspecified) | % | 6.19 |
| COc1ccc(/C=C2\SC(=O)N(CCC(=O)NC3CCS(=O)(=O)C3)C2=O)cc1 (stereo unspecified) | % | 5.86 |

###

- Test system: Methionine sulfoxide reductase A (Bos taurus)
- method-description: bovine MsrA inhibitors, retest, confirmation, biochemical, absorbance, HTS (AID 651822);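 further: coupled to thioredoxin reductase with NADPH and selenocystamine and DMSO as substrate; 0% = vehicle only and 100% = full effect of reference inhibitor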
- experimental-setup: purified bovine MsrA, absorbance read-out; at 15.5 µM; hits give high values
In all, about 2,300 compounds went through this assay and about 970 (42%) were called active. So high a share suggests a set chosen from earlier hits. These entries were drawn from the full list.
Class 1.0: inhibition at least 4%. Class 0.0: inhibition below 4%.

| compound | assayed-target | cat |
| --- | --- | --- |
| COc1ccc(/C=C(/NC(=O)c2ccco2)C(=O)Nc2ccc(C(C)=O)cc2)cc1 | Methionine sulfoxide reductase A (Bos taurus) | 1.0 |
| COc1cccc(/C(C)=N/Nc2ncc(Cl)cc2Cl)c1 | Methionine sulfoxide reductase A (Bos taurus) | 1.0 |
| Cc1c(C=O)c2ccccn2c1C(=O)c1ccncc1 | Methionine sulfoxide reductase A (Bos taurus) | 1.0 |
| CC(=O)Nc1ccc(/C=N/NC(=O)c2cccs2)cc1 | Methionine sulfoxide reductase A (Bos taurus) | 0.0 |
| CCc1nnc(NC(=O)/C=C/c2ccc(C)o2)s1 | Methionine sulfoxide reductase A (Bos taurus) | 1.0 |
| Nc1nnnn1CC(=O)N/N=C/c1ccc(-c2cccc(Cl)c2)o1 | Methionine sulfoxide reductase A (Bos taurus) | 0.0 |
| Cc1ccc(S(=O)(=O)Nc2nc(C)cc(N/N=C/c3ccc(O)cc3)n2)cc1 | Methionine sulfoxide reductase A (Bos taurus) | 1.0 |
| CCOc1cc(/C=N/NC(=O)c2ccc(CSc3nncn3C)cc2)ccc1OCC(=O)N1CCOCC1 | Methionine sulfoxide reductase A (Bos taurus) | 0.0 |
| COC(=O)/C(C#N)=C/c1occc1C | Methionine sulfoxide reductase A (Bos taurus) | 1.0 |
| C/C(=N\Nc1ccc(S(N)(=O)=O)cc1[N+](=O)[O-])c1cccs1 | Methionine sulfoxide reductase A (Bos taurus) | 0.0 |
| CN(c1ccccc1)S(=O)(=O)c1ccc2[nH]c(=O)[nH]c2c1 | Methionine sulfoxide reductase A (Bos taurus) | 1.0 |
| Cc1c(C(=O)N2CCCc3ccccc32)oc2ccccc12 | Methionine sulfoxide reductase A (Bos taurus) | 1.0 |
| Cc1ccc(N2CCN(C3=NC(=O)/C(=C\c4cccs4)S3)CC2)cc1 | Methionine sulfoxide reductase A (Bos taurus) | 0.0 |
| O=S1(=O)N=C(N(CCO)/N=C/c2ccccc2F)c2ccccc21 | Methionine sulfoxide reductase A (Bos taurus) | 0.0 |
| CC(=O)c1ccc(N2CCN(CC(=O)Nc3ccccc3N3CCOCC3)CC2)cc1 | Methionine sulfoxide reductase A (Bos taurus) | 0.0 |
| C=CCNC(=S)N/N=C/c1ccc(C)s1 | Methionine sulfoxide reductase A (Bos taurus) | 1.0 |
| Cc1ccc(N2C(=O)CN=C2Nc2nc(C)cc(C)n2)cc1 | Methionine sulfoxide reductase A (Bos taurus) | 1.0 |
| O=C(Oc1c(-c2ccco2)oc2ccccc2c1=O)c1cccnc1 | Methionine sulfoxide reductase A (Bos taurus) | 1.0 |
| Cc1ccc(-c2ccc(/C=C(\C#N)C(N)=S)o2)c([N+](=O)[O-])c1 | Methionine sulfoxide reductase A (Bos taurus) | 0.0 |
| CC(/C=N/NC(=O)c1ccncc1)=C\c1ccco1 | Methionine sulfoxide reductase A (Bos taurus) | 1.0 |
| Cc1ccc(Nc2ccc(C(N)=O)cc2[N+](=O)[O-])cc1 | Methionine sulfoxide reductase A (Bos taurus) | 1.0 |
| Cc1oc2c(c1C(=O)N1CCOCC1)C(=O)c1ccccc1C2=O | Methionine sulfoxide reductase A (Bos taurus) | 1.0 |
| Cc1ccc(C(=O)N/N=C/c2sc(=O)n(Cc3cccc(C(=O)O)c3)c2Cl)cc1 | Methionine sulfoxide reductase A (Bos taurus) | 1.0 |
| CCOc1ccc2[nH]c(C(=O)N/N=C/c3cccc(OC)c3OC)cc2c1 | Methionine sulfoxide reductase A (Bos taurus) | 0.0 |
| CCOC(=O)C/C(C)=N\Nc1ccc([N+](=O)[O-])cc1[N+](=O)[O-] | Methionine sulfoxide reductase A (Bos taurus) | 1.0 |
| COc1ccc(/C=N/n2nnnc2N)cc1OC | Methionine sulfoxide reductase A (Bos taurus) | 0.0 |
| CC(=O)Nc1ccc(S(=O)(=O)Oc2ccc(/C=N/N=C3/NC(=O)C(CC(=O)O)S3)cc2)cc1 (configuration not stated) | Methionine sulfoxide reductase A (Bos taurus) | 0.0 |
| Cc1cccc2cc(C#N)c(N3CCCC3)nc12 | Methionine sulfoxide reductase A (Bos taurus) | 1.0 |
| COc1ccc(C2/C(=C(/O)c3ccccc3)C(=O)C(=O)N2C)c(OC)c1 (configuration not stated) | Methionine sulfoxide reductase A (Bos taurus) | 0.0 |
| O=C(O)c1cccc(NC(=S)N/N=C/c2c[nH]c3ccccc23)c1 | Methionine sulfoxide reductase A (Bos taurus) | 1.0 |
| COc1cc2cc(C(=O)N/N=C/c3cccc(OC)c3OC)[nH]c2cc1OC | Methionine sulfoxide reductase A (Bos taurus) | 1.0 |

The values you see were collected from PubChem BioAssay AID651822.
